Tested on: OSA cells
protocol.summary: Alamar Blue cell proliferation assay
Type: cell-based
measurement.parameters: Homo sapiens, 72 h drug exposure
measurement.label: IC50

>  <structure.smiles.string>
CN(C)CCNC(=O)c1cccc(NC(=O)Nc2ccc(N(CCCl)CCCl)cc2)c1

>  <measurement.label>
IC50

>  <reading>
> 10 µM

$$$$

###

Tested on: RH30 cells
protocol.summary: Alamar Blue cell proliferation assay
Format: cell-based
measurement.parameters: Homo sapiens; RH30, 72 h drug exposure
pIC50: −log10 of the molar value.
measurement.label: pIC50

>  <structure.smiles.string>
CN(C)CCNC(=O)c1cccc(NC(=O)Nc2ccc(N(CCCl)CCCl)cc2)c1

>  <measurement.label>
pIC50

>  <reading>
6.62

$$$$
